assay: Pharmacokinetics in male Sprague Dawley rats; type: in vivo; conditions: rat, sc, mean, single subcutaneous administration of 200 nMol/kg, plasma, read-out: t½ (converted)
Numbered stars: 1 amine (or outer) side, 2 acyl side, 3 side chain; on linkers, the order of the positions; unused ones are H or OH. Bridge positions count the residues as written; N and C are the ends. Square brackets hold non-standard residues; d marks the D form. * marks the point of attachment. PEG24 = NCCOCCOCCOCCOCCOCCOCCOCCOCCOCCOCCOCCOCCOCCOCCOCCOCCOCCOCCOCCOCCOCCOCCOCCOCCC(=O)O; C20 diacid = O=C(O)CCCCCCCCCCCCCCCCCCC(=O)*; γGlu = O=C(O)[C@H](CCC(=O)[*:2])N[*:1]; 4Pal = N[C@@H](Cc1ccncc1)C(=O)O; CH2 = C([*:1])[*:2]; βAla = NCCC(=O)O
MEASUREMENT TYPE: half-life (h)
Give a bare numeral; the unit h is implied.

As a guide, the following entries are already answered.
{C20 diacid-γGlu}-EKEKEKG[PEG24]S[4Pal]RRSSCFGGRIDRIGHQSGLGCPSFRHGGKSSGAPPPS-NH2 (linker 15-31 via CH2) [Example 75] = 17
{C20 diacid-γGlu}-EKEKEKG[PEG24]S[4Pal]RRSSCFGGRIDRIGHQSGLGCPSFRHGGPSSGAPPPS-NH2 (linker 15-31 via CH2) [Example 61] = 6
{C20 diacid-γGlu}-EKEKEKG[PEG24]EK[βAla]RSSCFGGKIDRIGHQSGLGCPSFRHGSPSSGAPPPS-NH2 (linker 15-31 via CH2) [Example 7] = 19
{C20 diacid-γGlu}-EKEKEKG[PEG24]EK[βAla]RSSCFGGKIDRIGHYSGLGCPSFRHGSPSSGAPPPS-NH2 (linker 15-31 via CH2) [Example 6] = 17

--- query ---
Q. Endpoint output: half-life of {C20 diacid-γGlu}-EKEKEKGS[4Pal]RRSSCFGGRIGRIGHQSGLGCPSFRHGGPSSGAPPPS-NH2 (disulfide 14-30) [Example 29] . Value?
A. 12
